Attribution: patent CN111171150A

Kindly supply the reported Kd values for the records listed here.
Target: T1, mfTSLP (cynomolgus monkey (Macaca fascicularis))
T1 construct: also called 猴TSLP; 食蟹猴TSLP
T1 chain: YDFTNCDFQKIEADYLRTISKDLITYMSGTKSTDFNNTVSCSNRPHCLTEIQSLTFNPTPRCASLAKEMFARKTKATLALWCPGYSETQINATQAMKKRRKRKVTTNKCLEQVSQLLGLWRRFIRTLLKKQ
Assay: SPR (Biacore X100) as in Example 3.1, antibody captured, mfTSLP as analyte
The number alone won't do; follow it with the unit.

Per the records, this binder ( H1A10+L3E8-M4 (antibody, IgG4, V domains shown, also called L3E8人源化突变体) VH: QVQLVQSGAEVKKPGASVKVSCKASGYAFSNYWMNWVRQAPGQGLEWMGQIFPGDSDTDYDQKFQGRVTMTRDTSTSTVYMELSSLRSEDTAVYYCARAGYYRGYYAMDYWGQGTTVTVSS VL: EIVMTQSPATLSVSPGERATLSCSVSSSISSSNLHWYQQKPGQAPRPWIYGTSNLASGIPARFSGSGSGTEFTLTISSMEAEDFAVYYCQQWSSYPLTFGQGTKLEIK ) has Kd equal to 2.63 nM

Per the records, this binder ( H1A10+L3E8-M3 (antibody, IgG4, V domains shown, also called L3E8人源化突变体) VH: QVQLVQSGAEVKKPGASVKVSCKASGYAFSNYWMNWVRQAPGQGLEWMGQIFPGDSDTDYDQKFQGRVTMTRDTSTSTVYMELSSLRSEDTAVYYCARAGYYRGYYAMDYWGQGTTVTVSS VL: EIVMTQSPATLSVSPGERATITCSVSSSISSSNLHWYQQKPGQAPRPWIYGTSNLASGIPARFSGSGSGTEFTLTISSLQSEDFAVYYCQQWSSYPLTFGQGTKLEIK ) has Kd equal to 2.37 nM

Per the records, this binder ( H1A10+L3E8-M2 (antibody, IgG4, V domains shown, also called L3E8人源化突变体) VH: QVQLVQSGAEVKKPGASVKVSCKASGYAFSNYWMNWVRQAPGQGLEWMGQIFPGDSDTDYDQKFQGRVTMTRDTSTSTVYMELSSLRSEDTAVYYCARAGYYRGYYAMDYWGQGTTVTVSS VL: EIVMTQSPATLSVSPGERATLSCSVSSSISSSNLHWYQQKPGQAPKPWIYGTSNLASGIPARFSGSGSGTEFTLTISSLQSEDFAVYYCQQWSSYPLTFGQGTKLEIK ) has Kd equal to 2.59 nM

Per the records, this binder ( Tezepelumab (antibody, V domains shown, also called AMG 157; MEDI9929) VH: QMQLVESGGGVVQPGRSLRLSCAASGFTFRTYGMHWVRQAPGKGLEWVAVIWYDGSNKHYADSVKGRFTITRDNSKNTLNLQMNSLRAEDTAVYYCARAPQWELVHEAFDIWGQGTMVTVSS VL: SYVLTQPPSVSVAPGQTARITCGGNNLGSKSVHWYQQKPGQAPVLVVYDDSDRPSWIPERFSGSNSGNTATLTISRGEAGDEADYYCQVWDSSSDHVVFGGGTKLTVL ) has Kd equal to 0.00816 nM
